- target desc: recombinant eIF4E (Homo sapiens (Human), UniProt P06730)
- Sequence (P06730 whole entry): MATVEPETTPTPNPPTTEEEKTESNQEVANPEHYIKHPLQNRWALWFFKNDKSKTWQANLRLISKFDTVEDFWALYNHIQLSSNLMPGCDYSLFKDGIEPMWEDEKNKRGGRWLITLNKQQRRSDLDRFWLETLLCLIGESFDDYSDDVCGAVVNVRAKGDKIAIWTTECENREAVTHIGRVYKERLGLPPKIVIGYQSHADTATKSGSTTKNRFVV
- assay overview: Fluorescence polarization competition assay for eIF4E binding potency
- condition notes: fluorescence polarization competition, 75 nM recombinant eIF4E, 20 nM EDA-m7GDP-ATTO-550; IC50 class; read-out: elF4E FP
We begin with a simple list: items and their reported IC50.

Before answering, review these 2 worked examples.
INSERT INTO results (line_notation, measurement) VALUES
  ('Cc1nc2cc(CN(C)C)cc(C#N)c2c(=O)n1CCOc1ccc(Cl)cc1-c1ccnc2c(C(=O)O)csc12', '50 to 1000 nM'),
  ('Cc1nc2cc(C(F)(F)F)c(N3CCN(CCO)CC3)c(C#N)c2c(=O)n1CC#Cc1ccc(Cl)cc1-c1ccnc2c(C(=O)O)csc12', '< 50 nM');

We now examine a further compound.
Fill in: IC50 of COc1c(C)n(CCOc2ccc(Cl)cc2-c2ccnc3c(C(=O)O)csc23)c(=O)c2c(C#N)cc(C(F)(F)F)cc12 is ___
50 to 1000 nM
